Where do these numbers come from? They come from patent US20240182536A1.

- system: T1, human IL-18 binding protein (human, UniProt O95998 31-194)
- T1 sequence (looked up): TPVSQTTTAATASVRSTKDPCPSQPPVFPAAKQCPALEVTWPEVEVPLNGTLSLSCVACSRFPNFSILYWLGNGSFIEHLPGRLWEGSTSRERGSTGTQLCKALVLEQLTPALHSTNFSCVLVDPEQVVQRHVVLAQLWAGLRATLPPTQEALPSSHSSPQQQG
- assayText: cell-based or functional assay
Assignment: determine reported Ratio (-BP/+BP), DF-1,000,000 for the given binders.
Answers are plain numbers.

Look over these answered cases.
INSERT INTO assay_data (binder, testresult) VALUES
  ('yeast display IL-18 variant T34I, S36V, D40I, N41M, K53G, S55Y (ligand) YFGKLESKLSVIRNLNDQVLFIDQGNRPLFEDMIDVDMRIMAPRTIFIISMYGDYQPRGMAVTISVKSEKISTLSSENKIISFKEMNPPDNIKDTKSDIIFFQRSVPGHDNKMQFESSSYEGYFLASEKERDLFKLILKKEDELGDRSIMFTVQNED', 1.52),
  ('yeast display IL-18 variant K53Y, S55Y (ligand) YFGKLESKLSVIRNLNDQVLFIDQGNRPLFEDMTDSDMRDNAPRTIFIISMYYDYQPRGMAVTISVKSEKISTLSSENKIISFKEMNPPDNIKDTKSDIIFFQRSVPGHDNKMQFESSSYEGYFLASEKERDLFKLILKKEDELGDRSIMFTVQNED', 0.57),
  ('yeast display IL-18 variant K53N, S55I (ligand) YFGKLESKLSVIRNLNDQVLFIDQGNRPLFEDMTDSDMRDNAPRTIFIISMYNDIQPRGMAVTISVKSEKISTLSSENKIISFKEMNPPDNIKDTKSDIIFFQRSVPGHDNKMQFESSSYEGYFLASEKERDLFKLILKKEDELGDRSIMFTVQNED', 0.99),
  ('yeast display IL-18 variant K53Q, D54N, S55M, Q56H (ligand) YFGKLESKLSVIRNLNDQVLFIDQGNRPLFEDMTDSDMRDNAPRTIFIISMYQNMHPRGMAVTISVKSEKISTLSSENKIISFKEMNPPDNIKDTKSDIIFFQRSVPGHDNKMQFESSSYEGYFLASEKERDLFKLILKKEDELGDRSIMFTVQNED', 1.06),
  ('yeast display IL-18 variant L5W, S7Y, K53H, S55M (ligand) YFGKWEYKLSVIRNLNDQVLFIDQGNRPLFEDMTDSDMRDNAPRTIFIISMYHDMQPRGMAVTISVKSEKISTLSSENKIISFKEMNPPDNIKDTKSDIIFFQRSVPGHDNKMQFESSSYEGYFLASEKERDLFKLILKKEDELGDRSIMFTVQNED', 1.24),
  ('yeast display IL-18 variant K53S, S55K (ligand) YFGKLESKLSVIRNLNDQVLFIDQGNRPLFEDMTDSDMRDNAPRTIFIISMYSDKQPRGMAVTISVKSEKISTLSSENKIISFKEMNPPDNIKDTKSDIIFFQRSVPGHDNKMQFESSSYEGYFLASEKERDLFKLILKKEDELGDRSIMFTVQNED', 0.95);

Query: What value of Ratio (-BP/+BP), DF-1,000,000 has been reported for the following binder? yeast display IL-18 variant K53D, S55N (ligand) YFGKLESKLSVIRNLNDQVLFIDQGNRPLFEDMTDSDMRDNAPRTIFIISMYDDNQPRGMAVTISVKSEKISTLSSENKIISFKEMNPPDNIKDTKSDIIFFQRSVPGHDNKMQFESSSYEGYFLASEKERDLFKLILKKEDELGDRSIMFTVQNED
Result: 1
